Data provenance is patent US4017607A.

- System: Streptococcus hemolyticus D-90
- test description: Minimum inhibitory concentration, serial dilution method
- Format: cell-based
- settings: Streptococcus pyogenes, D90; Streptococcus hemolyticus D-90; 24 hours, 37° C; read-out: Minimum Inhibitory Concentration
Hi there, I'd appreciate the recorded MIC for every entry that follows.
Give the number; µg/mL is assumed, so skip it.

*Q* For the compound CCC(=O)OC1CC(=O)OC(C)CC=CC=CC(OC(C)=O)C(C)CC(CC=O)C(OC2OC(C)C(OC3CC(C)(OC(=O)CC)C(OC(C)=O)C(C)O3)C(N(C)C)C2O)C1OC (stereo not shown) , what MIC is on record?
*A* 0.78

*Q* For the compound CCC(=O)OC1C=CC=CCC(C)OC(=O)CC(OC(=O)CC)C(OC)C(OC2OC(C)C(OC3CC(C)(OC(=O)CC)C(OC(C)=O)C(C)O3)C(N(C)C)C2O)C(CC=O)CC1C (stereo not shown) , what MIC is on record?
*A* 0.78

*Q* For the compound CCC(=O)OC1CC(=O)OC(C)CC=CC=CC(OC(C)=O)C(C)CC(CC=O)C(OC2OC(C)C(OC3CC(C)(OC(C)=O)C(OC(=O)CC)C(C)O3)C(N(C)C)C2O)C1OC (stereo not shown) , what MIC is on record?
*A* 0.78

*Q* For the compound CCC(=O)OC1CC(=O)OC(C)CC=CC=CC(OC(C)=O)C(C)CC(CC=O)C(OC2OC(C)C(OC3CC(C)(OC(=O)CC)C(OC(=O)CC(C)C)C(C)O3)C(N(C)C)C2O)C1OC (stereo not shown) , what MIC is on record?
*A* 0.19

*Q* For the compound CCC(=O)OC1C=CC=CCC(C)OC(=O)CC(OC(=O)CC)C(OC)C(OC2OC(C)C(OC3CC(C)(OC(=O)CC)C(OC(=O)CC)C(C)O3)C(N(C)C)C2O)C(CC=O)CC1C (stereo not shown) , what MIC is on record?
*A* 1.56

*Q* For the compound CCC(=O)OC1CC(=O)OC(C)CC=CC=CC(OC(C)=O)C(C)CC(CC=O)C(OC2OC(C)C(OC3CC(C)(OC(=O)CC)C(OC(=O)C(C)C)C(C)O3)C(N(C)C)C2O)C1OC (stereo not shown) , what MIC is on record?
*A* 0.78

*Q* For the compound CCC(=O)OC1CC(=O)OC(C)CC=CC=CC(OC(C)=O)C(C)CC(CC=O)C(OC2OC(C)C(OC3CC(C)(OC(=O)CC)C(OC(=O)CC)C(C)O3)C(N(C)C)C2O)C1OC (stereo not shown) , what MIC is on record?
*A* 0.78
